System: Wolbachia pipientis
assay: Anti-Wolbachia Cell-Based Screen
Type: functional
Design: scale not given: in the data most compounds retested in dose-response had high values
assay context: 5 µM
Screen size: about 48,000 compounds; about 13,000 (27%) showed an effect of 50% or more. The list shows a part of the results.
Reported Percent Effect values for a set of molecules
Express your answer in %, writing the number without its unit.

Example molecules with recorded Percent Effect:
I'd like to know its Percent Effect. The molecule in question is `N[C@H]1CN(C(=O)c2ccc(CO)cc2)C[C@@H]1C1CC1` -11.41

And for CCCN(C(=O)CN1CCN(CC(C)O)CC1)C1=CCCCC1 (stereo unspecified) ? -2.912

Try the molecule `Cc1n[nH]c(C)c1S(=O)(=O)N(C)Cc1nn(C)c(Cl)c1Cl` 0.7109

Another molecule to check: CN(Cc1cc(-c2ccccc2)no1)CC1CCCN1c1cccnn1 (stereo unspecified) 1.009

// query: `Cc1cc(O)cc(=O)n1CCCC(=O)Nc1n[nH]c2cccc(F)c12` 106.9

---
Please report the recorded Percent Effect for `O=C(NC[C@H]1OC[C@@H](NCc2ccc(F)cc2)[C@@H]1O)N1CCOCC1` . -11.78

Hey, just so you know, these numbers are from ChEMBL document CHEMBL3988442.
